- Assay target: hAM1R (human, UniProt Q16602)
- Procedure text: cell-based or functional assay
Numbered stars: 1 amine (or outer) side, 2 acyl side, 3 side chain; on linkers, the order of the positions; unused ones are H or OH. Bridge positions count the residues as written; N and C are the ends. Square brackets hold non-standard residues; d marks the D form. Side chains are listed from the residue outwards. Ends that are not written are not given here. * marks the point of attachment. C20 diacid = O=C(O)CCCCCCCCCCCCCCCCCCC(=O)*; γGlu = O=C(O)[C@H](CCC(=O)[*:2])N[*:1]; Hyp = O=C(O)[C@@H]1C[C@@H](O)CN1; AEEA = NCCOCCOCC(=O)O
Entries and their hAM1R EC50 (cAMP) values follow.

- {C20 diacid-γGlu}-KCNFATCTVQRLAHQIYQFTDKDKDNVAPRTEVGSNG[Hyp]-NH2 (disulfide 2-7 (inferred); not fully specified; ends not checked) [SEQ ID NO: 67]: 0.116 µM
- GCRTGTCTVQRLAHQIYQFTDKFKDNVAPRSKISPQH[Hyp]-NH2 (disulfide 2-7 (inferred); ends not checked) [SEQ ID NO: 201]: 4.88 µM
- {C20 diacid-γGlu}-KCNTATCTVQRLAHQIAQFADKDKDNVAPPTNVGSNG[Hyp]-NH2 (disulfide 2-7 (inferred); ends not checked) [SEQ ID NO: 105]: > 5 µM
- GCRFGTCTVQRLAHQIYQFTDKDKDNVAPRTNVSPNGY [SEQ ID NO: 98]: 0.0669 µM
- GCRFGTCTVQRLAHQIYQFTDKDKDNVAPRSKIGPQG[Hyp]-NH2 (disulfide 2-7 (inferred); ends not checked) [SEQ ID NO: 127]: 0.107 µM

GET /value?item= {C20 diacid-γGlu}-KCNTATCTVARLAEQIYQFTDKDKDPVAPPTNVGSNG[Hyp]-NH2 (disulfide 2-7 (inferred); ends not checked) [SEQ ID NO: 133] &field=hAM1R EC50 (cAMP) returns > 5 µM

GET /value?item= KCNTATCTVQRLAEQIK([AEEA-AEEA-γGlu-C20 diacid])QFTDKDKDNVAPPTNVGSNG[Hyp]-NH2 (disulfide 2-7 (inferred); ends not checked) [SEQ ID NO: 136] &field=hAM1R EC50 (cAMP) returns > 5 µM

GET /value?item= GCRWGTCTVQRLAHQIYQFTDKFKDNVAPRSKISPQT[Hyp]-NH2 (disulfide 2-7 (inferred); ends not checked) [SEQ ID NO: 171] &field=hAM1R EC50 (cAMP) returns > 5 µM

GET /value?item= GCRFGTCTVQRLAHQIYQFTDKDKDNVAPRSKISPQT[Hyp]-NH2 (disulfide 2-7 (inferred); ends not checked) [SEQ ID NO: 168] &field=hAM1R EC50 (cAMP) returns > 5 µM
